// provenance: ChEMBL document CHEMBL1125203

Listed here are compounds together with their documented half-life.
- assay-details: Half life was measured in mice.
- Type: ADME, organism-based
- experimental-conditions: mouse, in vivo
assay-endpoint: half-life (h)

[[record]]
molecule = "O=c1[nH]c(=O)n([C@H]2C[C@H](O)[C@@H](CO)S2)cc1/C=C/Br"
test_value = 2

[[record]]
molecule = "Cc1cn([C@H]2C[C@H](O)[C@@H](CO)S2)c(=O)[nH]c1=O"
test_value = 1

